Provide the recorded IC50 for the entries that follow.
# Assay system: Serine/threonine-protein kinase PLK1 (Homo sapiens)
# Sequence (P53350 whole entry): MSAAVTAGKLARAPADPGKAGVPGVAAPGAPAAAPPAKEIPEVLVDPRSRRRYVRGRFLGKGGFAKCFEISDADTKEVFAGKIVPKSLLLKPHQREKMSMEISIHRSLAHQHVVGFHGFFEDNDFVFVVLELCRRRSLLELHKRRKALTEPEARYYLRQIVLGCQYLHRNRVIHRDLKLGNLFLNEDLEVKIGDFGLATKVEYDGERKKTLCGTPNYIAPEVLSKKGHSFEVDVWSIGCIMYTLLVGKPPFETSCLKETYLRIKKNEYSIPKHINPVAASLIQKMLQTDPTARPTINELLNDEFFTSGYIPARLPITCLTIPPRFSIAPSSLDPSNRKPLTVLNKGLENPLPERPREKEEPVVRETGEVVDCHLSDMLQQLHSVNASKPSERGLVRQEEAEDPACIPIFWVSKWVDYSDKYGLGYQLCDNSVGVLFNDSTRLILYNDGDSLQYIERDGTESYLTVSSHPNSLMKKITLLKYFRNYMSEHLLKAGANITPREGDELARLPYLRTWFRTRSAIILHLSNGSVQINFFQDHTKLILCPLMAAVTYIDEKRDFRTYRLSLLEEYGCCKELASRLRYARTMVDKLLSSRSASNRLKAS
# Experiment: Evaluation of PLK1 Kinase Activity In Vitro

Query smiles: CN1CCN(c2ccc(OC(F)(F)F)c(Nc3ncc4c(n3)-c3csc(C(N)=O)c3CC4)c2)CC1
Assay system: Serine/threonine-protein kinase PLK1 (Homo sapiens)
Result: 4 nM

Lab note: COc1nnc(N2CCN(C)CC2)cc1Nc1ncc2c(n1)-c1c(SC)sc(C(N)=O)c1CC2 gave IC50 of 5.9 nM
